# studyTarget: UniProt P33533
# methodDescription: Rat brain δ-opioid receptor binding assay ([3H]DPDPE)
# conditionSummary: rat forebrain preparation; [3H]DPDPE; 25° C.; read-out: δ-Opioid Receptor Binding (Ki nM)
Entries and their Ki values follow.
recordedEndpoint: Ki (nM)

[[record]]
molsmiles = "COC(=O)c1ccc(C(=Nc2ccccc2Cl)N2CCCN(CCc3ccccc3)CC2)cc1"
recordedendpoint = "Ki"
operator = "="
measurednumber = 101

[[record]]
molsmiles = "CCCN(CCC)C(=O)c1ccc(C(=Nc2ccccc2F)N2CCN(CC)CC2)cc1"
recordedendpoint = "Ki"
operator = "="
measurednumber = 256

[[record]]
molsmiles = "COC(=O)c1ccc(C(=Nc2ccccc2C(F)(F)F)N2CCN(CCc3ccccc3)CC2)cc1"
recordedendpoint = "Ki"
operator = ">"
measurednumber = 10000

[[record]]
molsmiles = "COC(=O)c1ccc(C(=Nc2ccccc2Cl)N2CCN(CCc3cccs3)CC2)cc1"
recordedendpoint = "Ki"
operator = ">"
measurednumber = 10000

[[record]]
molsmiles = "CCN1CCN(C(=Nc2ccccc2F)c2ccc(C(=O)OC)cc2)CC1"
recordedendpoint = "Ki"
operator = "="
measurednumber = 230

[[record]]
molsmiles = "CCN1CCN(C(=Nc2cccc(Cl)c2)c2ccc(C(=O)OC)cc2)CC1"
recordedendpoint = "Ki"
operator = "="
measurednumber = 283


====

# studyTarget: δ-opioid receptor (Rattus norvegicus, UniProt P33533)
# Sequence (P33533 whole entry): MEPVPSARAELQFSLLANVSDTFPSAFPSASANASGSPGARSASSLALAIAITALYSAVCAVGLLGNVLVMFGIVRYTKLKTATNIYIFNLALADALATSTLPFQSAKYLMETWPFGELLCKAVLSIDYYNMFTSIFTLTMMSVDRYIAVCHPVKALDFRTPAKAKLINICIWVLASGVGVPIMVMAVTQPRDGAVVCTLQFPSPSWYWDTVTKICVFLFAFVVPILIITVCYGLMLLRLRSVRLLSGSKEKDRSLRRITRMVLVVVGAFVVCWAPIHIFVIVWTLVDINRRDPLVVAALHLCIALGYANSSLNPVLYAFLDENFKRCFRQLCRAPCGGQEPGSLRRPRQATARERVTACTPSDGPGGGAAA
# methodDescription: Rat brain δ-opioid receptor binding assay ([3H]DPDPE)
# conditionSummary: rat forebrain preparation; [3H]DPDPE; 25° C.; read-out: δ-Opioid Receptor Binding (Ki nM)
// classify(record): look up Ki in ranges 0 = under 300 nM, 1 = from 300 nM up to 2000 nM, 2 = 2000 nM and over

[[record]]
compound = "COC(=O)c1ccc(C(=Nc2ccccc2)N2CCCN(CCc3ccccc3)CC2)cc1 [Compound 58]"
classlabel = 1

[[record]]
compound = "CCN1CCN(C(=Nc2cccc(Br)c2)c2ccc(C(=O)OC)cc2)CC1 [Compound 30]"
classlabel = 1

[[record]]
compound = "COC(=O)c1ccc(C(=Nc2ccccc2)N2CCN(Cc3ccccc3)CC2)cc1 [Compound 37]"
classlabel = 1

[[record]]
compound = "C=CCN1C[C@H](C)N(/C(=N/c2ccccc2)c2ccc(C(=O)OC)cc2)C[C@H]1C [Compound 51]"
classlabel = 1

[[record]]
compound = "CCCN(CCC)C(=O)c1ccc(C(=Nc2cc(Cl)cc(Cl)c2)N2CCN(CC)CC2)cc1 [Compound 12]"
classlabel = 1

[[record]]
compound = "COC(=O)c1ccc(C(=Nc2ccccc2Cl)N2CCN(CCc3ccccc3)CC2)cc1 [Compound 40]"
classlabel = 2

[[record]]
compound = "C=CCN1CCN(C(=Nc2ccccc2)c2cccc(C(=O)N(CC)CC)c2)CC1 [Compound 53]"
classlabel = 2

[[record]]
compound = "COC(=O)c1ccc(C(=Nc2ccccc2)N2CCN(CCc3cccs3)CC2)cc1 [Compound 42]"
classlabel = 2

[[record]]
compound = "COC(=O)c1ccc(C(=Nc2ccc(Cl)cc2)N2CCN(Cc3ccccc3)CC2)cc1 [Compound 38]"
classlabel = 0

[[record]]
compound = "C=CCN1C[C@H](C)N(/C(=N/c2ccccc2)c2ccc(C(=O)N(CC)CC)cc2)C[C@H]1C [Compound 16]"
classlabel = 0

[[record]]
compound = "C=CCN1CCN(C(=Nc2ccccc2Cl)c2cccc(C(=O)OC)c2)CC1 [Compound 54]"
classlabel = 2

[[record]]
compound = "COC(=O)c1ccc(C(=Nc2ccccc2Cl)N2CCN(c3ccccc3)CC2)cc1 [Compound 35]"
classlabel = 2

[[record]]
compound = "COCCN1CCN(C(=Nc2ccccc2C(F)(F)F)c2ccc(C(=O)OC)cc2)CC1 [Compound 44]"
classlabel = 0

[[record]]
compound = "CCN1CCN(C(=Nc2cc(Cl)cc(Cl)c2)c2ccc(C(=O)N(CC)CC)cc2)CC1 [Compound 13]"
classlabel = 0


====

# studyTarget: δ-opioid receptor (Homo sapiens, UniProt P41143)
# Construct: purchased Receptor Biology, Baltimore, Md; host or cells: CHO cells (membranes)
# Sequence (P41143 whole entry): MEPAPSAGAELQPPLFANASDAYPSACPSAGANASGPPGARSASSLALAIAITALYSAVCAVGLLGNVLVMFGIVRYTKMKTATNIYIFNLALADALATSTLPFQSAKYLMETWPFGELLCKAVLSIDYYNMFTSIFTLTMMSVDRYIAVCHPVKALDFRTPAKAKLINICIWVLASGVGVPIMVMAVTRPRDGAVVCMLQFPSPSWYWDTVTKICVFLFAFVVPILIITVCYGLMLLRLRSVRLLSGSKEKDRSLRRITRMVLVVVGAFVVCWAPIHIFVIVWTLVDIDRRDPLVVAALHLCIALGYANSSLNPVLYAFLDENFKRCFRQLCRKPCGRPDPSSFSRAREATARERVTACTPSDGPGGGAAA
# methodDescription: Scintillation screening assay for δ-opioid receptor binding ([3H]bremazocine)
# conditionSummary: cloned human receptor in CHO cell membranes, [3H]bremazocine 2.4 nM, read-out: δ-Opioid Receptor Binding (% Inhibition), % I @ 25 μM
The entries below are paired with their reported inhibition at 25 µM.
recordedEndpoint: inhibition at 25 µM (%)

[[record]]
molsmiles = "CCN1CCN(C(=Nc2cccc(Br)c2)c2ccc(C(=O)N(CC)CC)cc2)CC1"
unitinfo = "%"
measurednumber = 100

[[record]]
molsmiles = "CCCN(CCC)C(=O)c1ccc(C(=Nc2cccc(Br)c2)N2CCN(CC)CC2)cc1"
unitinfo = "%"
measurednumber = 100

[[record]]
molsmiles = "CCCN(CCC)C(=O)c1ccc(C(=Nc2ccccc2F)N2CCN(CC)CC2)cc1"
unitinfo = "%"
measurednumber = 98

[[record]]
molsmiles = "CCN1CCN(C(=Nc2cccc(Cl)c2)c2ccc(C(=O)N(CC)CC)cc2)CC1"
unitinfo = "%"
measurednumber = 103


====

# studyTarget: μ-opioid receptor (Rattus norvegicus, UniProt P33535)
# Sequence (P33535 whole entry): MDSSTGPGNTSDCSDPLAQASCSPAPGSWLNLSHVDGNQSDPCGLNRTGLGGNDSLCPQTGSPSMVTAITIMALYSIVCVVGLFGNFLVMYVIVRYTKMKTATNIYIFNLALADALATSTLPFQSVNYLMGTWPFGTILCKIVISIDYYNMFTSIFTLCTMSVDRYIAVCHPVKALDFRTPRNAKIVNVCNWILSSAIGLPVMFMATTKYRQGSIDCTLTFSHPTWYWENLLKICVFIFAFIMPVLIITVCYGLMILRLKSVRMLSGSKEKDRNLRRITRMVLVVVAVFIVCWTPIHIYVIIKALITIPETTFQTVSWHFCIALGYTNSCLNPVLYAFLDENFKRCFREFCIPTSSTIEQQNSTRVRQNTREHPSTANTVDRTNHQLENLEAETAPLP
# methodDescription: Rat brain μ-opioid receptor binding assay ([3H]DAMGO)
# conditionSummary: rat forebrain preparation; [3H]DAMGO; 25° C.; read-out: μ-Opioid Receptor Binding (Ki nM)
recordedEndpoint: Ki

[[record]]
molsmiles = "CCN1CCN(C(=Nc2ccccc2F)c2ccc(C(=O)OC)cc2)CC1"
result = "> 10000 nM"

[[record]]
molsmiles = "COCCN1CCN(C(=Nc2ccccc2Cl)c2ccc(C(=O)OC)cc2)CC1"
result = "> 10000 nM"

[[record]]
molsmiles = "C=CCN1C[C@H](C)N(/C(=N/c2ccccc2)c2ccc(C(=O)N(CC)CC)cc2)C[C@H]1C"
result = "4330 nM"

[[record]]
molsmiles = "CCCN(CCC)C(=O)c1ccc(C(=Nc2ccccc2F)N2CCN(CC)CC2)cc1"
result = "> 10000 nM"

[[record]]
molsmiles = "COC(=O)c1ccc(C(=Nc2ccc(Cl)cc2)N2CCN(Cc3ccccc3)CC2)cc1"
result = "> 10000 nM"

[[record]]
molsmiles = "COC(=O)c1ccc(C(=Nc2ccccc2Cl)N2CCCN(CCc3ccccc3)CC2)cc1"
result = "197 nM"

[[record]]
molsmiles = "COC(=O)c1ccc(C(=Nc2ccccc2)N2CCN(Cc3ccccc3)CC2)cc1"
result = "> 10000 nM"

[[record]]
molsmiles = "COC(=O)c1ccc(C(=Nc2ccccc2Cl)N2CCN(CCc3cccs3)CC2)cc1"
result = "> 10000 nM"

[[record]]
molsmiles = "CCCN(CCC)C(=O)c1ccc(C(=Nc2cc(Cl)cc(Cl)c2)N2CCN(CC)CC2)cc1"
result = "> 10000 nM"

[[record]]
molsmiles = "C=CCN1C[C@H](C)N(/C(=N/c2ccccc2)c2ccc(C(=O)OC)cc2)C[C@H]1C"
result = "> 10000 nM"

[[record]]
molsmiles = "COC(=O)c1ccc(C(=Nc2ccccc2Cl)N2CCN(c3ccccc3)CC2)cc1"
result = "> 10000 nM"

[[record]]
molsmiles = "COC(=O)c1ccc(C(=Nc2ccccc2C(F)(F)F)N2CCN(CCc3ccccc3)CC2)cc1"
result = "> 10000 nM"

[[record]]
molsmiles = "COC(=O)c1ccc(C(=Nc2ccccc2)N2CCN(CCc3cccs3)CC2)cc1"
result = "> 10000 nM"

[[record]]
molsmiles = "C=CCN1CCN(C(=Nc2ccccc2)c2cccc(C(=O)N(CC)CC)c2)CC1"
result = "> 10000 nM"

[[record]]
molsmiles = "C=CCN1CCN(C(=Nc2ccccc2Cl)c2cccc(C(=O)OC)c2)CC1"
result = "1610 nM"

[[record]]
molsmiles = "COC(=O)c1ccc(C(=Nc2ccccc2Cl)N2CCN(Cc3ccccc3)CC2)cc1"
result = "> 10000 nM"

[[record]]
molsmiles = "COC(=O)c1ccc(C(=Nc2ccccc2Cl)N2CCN(CCc3ccccc3)CC2)cc1"
result = "> 10000 nM"


====

Recorded Ki by entry
# studyTarget: UniProtKB P33535
# methodDescription: Rat brain μ-opioid receptor binding assay ([3H]DAMGO)
recordedEndpoint: Ki (nM)

[[record]]
molsmiles = "CCCN1CCN(C(=Nc2ccccc2Cl)c2ccc(C(=O)OC)cc2)CC1"
unitinfo = "nM"
operator = "="
measurednumber = 2070

[[record]]
molsmiles = "CCN(CC)C(=O)c1ccc(C(=Nc2ccccc2C(F)(F)F)N2CCN(Cc3ccccc3)CC2)cc1"
unitinfo = "nM"
operator = "="
measurednumber = 1200

[[record]]
molsmiles = "CCN1CCN(C(=Nc2ccccc2Cl)c2ccc(C(=O)N(CC)CC)cc2)CC1"
unitinfo = "nM"
operator = ">"
measurednumber = 10000

[[record]]
molsmiles = "CCN1CCN(C(=Nc2ccccc2)c2ccc(C(=O)N(CC)CC)cc2)CC1"
unitinfo = "nM"
operator = ">"
measurednumber = 10000


====

# studyTarget: UniProtKB P33535
# methodDescription: Rat brain μ-opioid receptor binding assay ([3H]DAMGO)
recordedEndpoint: Ki

[[record]]
compound = "C=CCN1CCN(C(=Nc2ccccc2)c2ccc(C(=O)N(CC)CC)cc2)CC1 [Compound 15]"
recordedendpoint = "Ki"
result = "> 10 µM"

[[record]]
compound = "CCN1CCN(C(=Nc2cccc(Cl)c2)c2ccc(C(=O)N(CC)CC)cc2)CC1 [Compound 3]"
recordedendpoint = "Ki"
result = "> 10 µM"

[[record]]
compound = "CCN(CC)C(=O)c1ccc(C(=Nc2ccc(Cl)cc2)N2CCN(Cc3ccccc3)CC2)cc1 [Compound 28]"
recordedendpoint = "Ki"
result = "> 10 µM"

[[record]]
compound = "CCN(CC)C(=O)c1ccc(C(=Nc2ccccc2Cl)N2CCN(Cc3ccccc3)CC2)cc1 [Compound 20]"
recordedendpoint = "Ki"
result = "> 10 µM"

[[record]]
compound = "CCN1CCN(C(=Nc2cccc(Br)c2)c2ccc(C(=O)N(CC)CC)cc2)CC1 [Compound 4]"
recordedendpoint = "Ki"
result = "> 10 µM"

[[record]]
compound = "CCN(CC)C(=O)c1ccc(C(=Nc2ccccc2C(F)(F)F)N2CCN(CCc3ccccc3)CC2)cc1 [Compound 24]"
recordedendpoint = "Ki"
result = "1 µM"

[[record]]
compound = "CCN(CC)C(=O)c1ccc(C(=Nc2ccccc2C(F)(F)F)N2CCN(CCOC)CC2)cc1 [Compound 26]"
recordedendpoint = "Ki"
result = "2.96 µM"

[[record]]
compound = "CCN(CC)C(=O)c1ccc(C(=Nc2ccccc2Cl)N2CCN(CCOC)CC2)cc1 [Compound 27]"
recordedendpoint = "Ki"
result = "> 10 µM"

[[record]]
compound = "CCN1CCN(C(=Nc2cccc(F)c2)c2ccc(C(=O)N(CC)CC)cc2)CC1 [Compound 9]"
recordedendpoint = "Ki"
result = "> 10 µM"

[[record]]
compound = "C=CCN1CCN(C(=Nc2ccccc2Cl)c2cccc(C(=O)N(CC)CC)c2)CC1 [Compound 52]"
recordedendpoint = "Ki"
result = "0.6 µM"

[[record]]
compound = "CCN(CC)C(=O)c1ccc(C(=Nc2ccccc2Cl)N2CCN(CCc3ccccc3)CC2)cc1 [Compound 25]"
recordedendpoint = "Ki"
result = "> 10 µM"

[[record]]
compound = "CCN1CCN(C(=Nc2cccc(F)c2)c2ccc(C(=O)OC)cc2)CC1 [Compound 32]"
recordedendpoint = "Ki"
result = "> 10 µM"

[[record]]
compound = "CCN(CC)C(=O)c1ccc(C(=Nc2ccccc2Cl)N2CCN(CCc3cccs3)CC2)cc1 [Compound 21]"
recordedendpoint = "Ki"
result = "> 10 µM"

[[record]]
compound = "CCCN1CCN(C(=Nc2cccc(Cl)c2)c2ccc(C(=O)N(CC)CC)cc2)CC1 [Compound 14]"
recordedendpoint = "Ki"
result = "9.53 µM"

[[record]]
compound = "CCN1CCN(C(=Nc2ccccc2F)c2ccc(C(=O)N(CC)CC)cc2)CC1 [Compound 10]"
recordedendpoint = "Ki"
result = "> 10 µM"

[[record]]
compound = "C=CCN1CCN(C(=Nc2ccccc2Cl)c2ccc(C(=O)N(CC)CC)cc2)CC1 [Compound 19]"
recordedendpoint = "Ki"
result = "7.6 µM"

[[record]]
compound = "CCCN(CCC)C(=O)c1ccc(C(=Nc2cccc(F)c2)N2CCN(CC)CC2)cc1 [Compound 8]"
recordedendpoint = "Ki"
result = "6.89 µM"

[[record]]
compound = "CCCN(CCC)C(=O)c1ccc(C(=Nc2cccc(Br)c2)N2CCN(CC)CC2)cc1 [Compound 5]"
recordedendpoint = "Ki"
result = "5.51 µM"

[[record]]
compound = "CCN(CC)C(=O)c1ccc(C(=Nc2ccccc2)N2CCN(Cc3ccccc3)CC2)cc1 [Compound 17]"
recordedendpoint = "Ki"
result = "> 10 µM"

[[record]]
compound = "CCN(CC)C(=O)c1ccc(C(=Nc2ccccc2Cl)N2CCCN(CCc3ccccc3)CC2)cc1 [Compound 57]"
recordedendpoint = "Ki"
result = "0.618 µM"

[[record]]
compound = "CCN(CC)C(=O)c1ccc(C(=Nc2ccccc2)N2CCN(CCc3cccs3)CC2)cc1 [Compound 22]"
recordedendpoint = "Ki"
result = "> 10 µM"

